Endpoint: IC50. System: Human alpha-thrombin (Homo sapiens (Human)). Items follow.

Before answering, review these 5 worked examples.
molecule	tgt	IC50
Cc1cccc2c1NCCC2C(=O)n1nc2c(c1N)COCC2 (stereo not drawn)	Human alpha-thrombin (Homo sapiens (Human))	> 80 µM
Cc1cccc2c1NCCC2C(=O)n1nc2c(c1N)CCN(S(C)(=O)=O)C2 (stereo not drawn)	Human alpha-thrombin (Homo sapiens (Human))	23 µM
CS(=O)(=O)N1CCc2c(nn(C(=O)C3CCNc4c(Cl)cccc43)c2N)C1 (single isomer, unassigned)	Human alpha-thrombin (Homo sapiens (Human))	> 60 µM
CN1CCc2c(c(N)nn2C(=O)C2CCCc3[nH]ccc32)C1 (stereo not drawn)	Human alpha-thrombin (Homo sapiens (Human))	70 µM
Nc1c2c(nn1C(=O)C1CCNc3ccccc31)CN(C(=O)c1ccccc1)CC2 (stereo not drawn)	Human alpha-thrombin (Homo sapiens (Human))	> 75 µM

What IC50 appears in the records for this molecule with Human alpha-thrombin (Homo sapiens (Human))? `Cc1cc2c(C(=O)n3nc4c(c3N)CN(C)CC4)cccc2[nH]1` 60 µM

What IC50 appears in the records for this molecule with Human alpha-thrombin (Homo sapiens (Human))? CC(C)N1CCc2c(nn(C(=O)C3CCNc4ccc(F)cc43)c2N)C1 (stereo not drawn) > 70 µM

What IC50 appears in the records for this molecule with Human alpha-thrombin (Homo sapiens (Human))? CN1CCc2nn(C(=O)C3CCCc4[nH]ccc43)c(N)c2C1 (stereo not drawn) > 80 µM

What IC50 appears in the records for this molecule with Human alpha-thrombin (Homo sapiens (Human))? CNS(=O)(=O)N1CCc2c(nn(C(=O)C3CCNc4ccccc43)c2N)C1 (stereo not drawn) > 50 µM

###

tgt: Human FXIIa (Homo sapiens (Human))
attribute measured: pIC50
Answer as the number alone; pIC50 is minus log10 of concentration in mol/L.

Before answering, review these 2 worked examples.
molecule	data value
CS(=O)(=O)N1CCc2c(nn(C(=O)C3CCNc4c(Cl)cccc43)c2N)C1 (single isomer, unassigned) [Example 60]	7.52
CC(C)S(=O)(=O)N1CCc2c(nn(C(=O)C3CCNc4ccccc43)c2N)C1 (centres unmarked) [Example 127]	6.70

Requested read-out: pIC50. Entry: Cc1cccc2c1NCCC2C(=O)n1nc(N)c2c1CN(S(=O)(=O)C1CCC1)CC2 (centres unmarked) [Example 184] 4.96

Requested read-out: pIC50. Entry: Cc1cccc2c1NCCC2C(=O)n1nc2c(c1N)CCN(S(C)(=O)=O)C2 (centres unmarked) [Example 34] 7.40

Requested read-out: pIC50. Entry: Nc1c2c(nn1C(=O)C1CCNc3ccc(F)cc31)CCOC2 (centres unmarked) [Example 74] 7.10

Requested read-out: pIC50. Entry: CN1CCc2nn(C(=O)C3CCNc4ccccc43)c(N)c2C1 (centres unmarked) [Example 86] 5.90

Requested read-out: pIC50. Entry: Cc1cc(F)cc2c1NCCC2C(=O)n1nc2c(c1N)CCN(S(C)(=O)=O)C2 (single isomer, unassigned) [Example 54] 5.60

###

tgt: Human FXIIa (Homo sapiens (Human), UniProt P00748)
Sequence (P00748 373-615): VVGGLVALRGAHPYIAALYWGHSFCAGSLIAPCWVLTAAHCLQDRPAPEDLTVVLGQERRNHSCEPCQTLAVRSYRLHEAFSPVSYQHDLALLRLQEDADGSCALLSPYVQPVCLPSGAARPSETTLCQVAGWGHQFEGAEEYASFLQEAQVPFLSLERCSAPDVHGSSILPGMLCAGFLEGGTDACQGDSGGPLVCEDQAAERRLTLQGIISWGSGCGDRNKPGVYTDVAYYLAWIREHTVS
Sequence (P00748 20-372 partner): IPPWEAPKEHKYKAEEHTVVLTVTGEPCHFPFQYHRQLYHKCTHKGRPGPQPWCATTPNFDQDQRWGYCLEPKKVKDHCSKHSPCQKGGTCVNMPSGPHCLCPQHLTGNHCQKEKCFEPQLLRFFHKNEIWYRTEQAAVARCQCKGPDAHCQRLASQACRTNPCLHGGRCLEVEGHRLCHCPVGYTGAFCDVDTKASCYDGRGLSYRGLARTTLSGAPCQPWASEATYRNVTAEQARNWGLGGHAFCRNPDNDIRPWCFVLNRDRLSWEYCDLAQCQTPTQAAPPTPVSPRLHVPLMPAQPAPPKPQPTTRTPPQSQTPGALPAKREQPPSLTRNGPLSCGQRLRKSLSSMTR
Output: class label from IC50. Mapping: Low (below 0.2 µM), Medium (0.2 µM to below 10 µM), High (10 µM or more)

compound	class
Cc1cc2c(C(=O)n3nc4c(c3N)CNCC4)cccc2[nH]1	Low
Cc1cccc2c1NCCC2C(=O)n1nc(N)c2c1CCOC2 (centres unmarked)	High
CS(=O)(=O)N1CCc2c(N)nn(C(=O)C3CCNc4c3cccc4C(F)(F)F)c2C1 (centres unmarked)	High
CCS(=O)(=O)N1CCc2c(nn(C(=O)C3CCNc4ccccc43)c2N)C1 (centres unmarked)	Medium
Cc1cccc2c1NCC[C@H]2C(=O)n1nc2c(c1N)CCOC2 (single isomer, unassigned)	High

Hi there! Could you help me figure out the category for CCc1cc2c([nH]1)CCCC2C(=O)n1nc(N)c2c1CCN(C(=O)OCc1ccccc1)C2 (centres unmarked) please? High

Hi there! Could you help me figure out the category for CCc1ccc2c(c1)C(C(=O)n1nc(N)c3c1CN(S(C)(=O)=O)CC3)CCN2 (centres unmarked) please? High

Hi there! Could you help me figure out the category for CS(=O)(=O)N1CCc2c(nn(C(=O)C3CCNc4ccc(F)cc43)c2N)C1 (single isomer, unassigned) [Example 19] please? High

Hi there! Could you help me figure out the category for CCc1cccc2c1NCCC2C(=O)n1nc(N)c2c1CN(S(C)(=O)=O)CC2 (centres unmarked) please? High

###

tgt: Human FXIIa (Homo sapiens (Human))
Entries and their measured IC50 follow.
Supply the numeric figure in µM, leaving out any unit text.

What IC50 appears in the records for this compound with Human FXIIa (Homo sapiens (Human))? Cn1cc2c(c1)C(C(=O)n1nc3c(c1N)CCN(S(C)(=O)=O)C3)CCC2 (stereo not drawn) 0.15

###

tgt: Human FXIIa (Homo sapiens (Human))
pIC50: −log10 of the molar value.
Output: class label from pIC50. Mapping: range A: < 5; range B: ≥ 5 and < 7; range C: ≥ 7

Known results for molecules:
molecule	tgt	class
Nc1c2c(nn1C(=O)C1CCNc3ccccc31)CNCC2 (stereo not shown)	Human FXIIa (Homo sapiens (Human))	range B
CC(=O)N1CCc2c(nn(C(=O)c3cccc4[nH]c(C)cc34)c2N)C1	Human FXIIa (Homo sapiens (Human))	range C

Hi there! Could you help me figure out the category for Cc1cccc2c1NCCC2C(=O)n1nc2c(c1N)CCN(S(C)(=O)=O)C2C (single isomer, unassigned) please? range B

Hi there! Could you help me figure out the category for CS(=O)(=O)N1CCc2c(nn(C(=O)C3CCNc4c(Cl)cccc43)c2N)C1 (single isomer, unassigned) [Example 59] please? range A

Hi there! Could you help me figure out the category for Nc1nn(C(=O)C2CCNc3ccc(F)cc32)c2c1CCNC2 (stereo not shown) please? range A

Hi there! Could you help me figure out the category for CCN1CCc2c(nn(C(=O)C3CCNc4ccc(Cl)cc43)c2N)C1 (stereo not shown) please? range C

Hi there! Could you help me figure out the category for CC(=O)N1CCc2c(N)nn(C(=O)C3CCNc4ccccc43)c2C1 (stereo not shown) please? range A

Hi there! Could you help me figure out the category for CC(C)c1ccc2c(c1)C(C(=O)n1nc3c(c1N)CCN(S(C)(=O)=O)C3)CCN2 (stereo not shown) please? range B

Hi there! Could you help me figure out the category for CS(=O)(=O)N1CCc2c(nn(C(=O)C3CCNc4ccc(F)cc43)c2N)C1 (single isomer, unassigned) [Example 16] please? range C

Hi there! Could you help me figure out the category for CNC(=O)N1CCc2nn(C(=O)C3CCNc4ccccc43)c(N)c2C1 (stereo not shown) please? range B

Hi there! Could you help me figure out the category for CCN1CCc2c(N)nn(C(=O)C3CCNc4c(C)cc(F)cc43)c2C1 (stereo not shown) please? range B

###

tgt: UniProtKB P00748
Simple rule here: IC50 less than 90 nM is TRUE, otherwise FALSE.

Known results for compounds:
compound	tgt	class
Cc1cccc2c1NCC[C@@H]2C(=O)n1nc2c(c1N)COCC2 (single isomer, unassigned) [Example 190]	UniProtKB P00748	TRUE
Cc1cccc2c1NCC[C@H]2C(=O)n1nc2c(c1N)CCN(S(=O)(=O)C1COC1)C2 (single isomer, unassigned) [Example 186]	UniProtKB P00748	FALSE
CCN1CCc2c(nn(C(=O)[C@H]3CCNc4ccc(F)cc43)c2N)C1 (single isomer, unassigned) [Example 165]	UniProtKB P00748	TRUE
CS(=O)(=O)N1CCc2c(N)nn(C(=O)C3CCNc4ccc(Cl)cc43)c2C1 (stereo not shown) [Example 15]	UniProtKB P00748	FALSE
Nc1c2c(nn1C(=O)C1CCNc3c(Cl)cccc31)CNCC2 (single isomer, unassigned) [Example 72]	UniProtKB P00748	TRUE

Would you kindly verify if IC50 of CCN1CCc2c(c(N)nn2C(=O)C2CCNc3ccccc32)C1 (stereo not shown) [Example 94] is strictly less than 90 nM? FALSE

###

tgt: Human FXIIa (Homo sapiens (Human))
Simple rule here: IC50 less than 400 nM is YES, otherwise NO.

Known results for compounds:
compound	class
CC(C)CN1CCc2c(N)nn(C(=O)C3CCNc4ccc(F)cc43)c2C1 (centres unmarked)	NO
Cc1cccc2c1NCC[C@@H]2C(=O)n1nc2c(c1N)CCN(S(=O)(=O)C1COC1)C2 (single isomer, unassigned)	YES
Nc1c2c(nn1C(=O)C1CCNc3ccccc31)CN(C(=O)OCc1ccccc1)CC2 (centres unmarked)	NO

Would you kindly verify if IC50 of COC(=O)N1CCc2nn(C(=O)C3CCNc4ccccc43)c(N)c2C1 (centres unmarked) is strictly less than 400 nM? NO

Would you kindly verify if IC50 of CS(=O)(=O)N1CCc2c(N)nn(C(=O)C3CCNc4ccc(C(F)(F)F)cc43)c2C1 (centres unmarked) is strictly less than 400 nM? NO

Would you kindly verify if IC50 of CN(C)C(=O)N1CCc2c(nn(C(=O)C3CCNc4ccccc43)c2N)C1 (centres unmarked) is strictly less than 400 nM? YES

Would you kindly verify if IC50 of COc1ccc2c(c1)C(C(=O)n1nc3c(c1N)CCN(S(C)(=O)=O)C3)CCN2 (centres unmarked) is strictly less than 400 nM? NO

Would you kindly verify if IC50 of Cc1cccc2c1NCC[C@@H]2C(=O)n1nc2c(c1N)CCN(S(=O)(=O)C1CCC1)C2 (single isomer, unassigned) is strictly less than 400 nM? YES

Where these numbers come from: patent US11312723B2
